// data source = patent US20220162163A1

- SYSTEM TESTED: JNK1 (Homo sapiens, UniProt P45983)
- Construct: A549 lung adenocarcinoma cells were purchased from ATCC and cultured in RPMI1640 Medium; endogenous in cells; host or cells: A549
- Sequence (P45983 whole entry): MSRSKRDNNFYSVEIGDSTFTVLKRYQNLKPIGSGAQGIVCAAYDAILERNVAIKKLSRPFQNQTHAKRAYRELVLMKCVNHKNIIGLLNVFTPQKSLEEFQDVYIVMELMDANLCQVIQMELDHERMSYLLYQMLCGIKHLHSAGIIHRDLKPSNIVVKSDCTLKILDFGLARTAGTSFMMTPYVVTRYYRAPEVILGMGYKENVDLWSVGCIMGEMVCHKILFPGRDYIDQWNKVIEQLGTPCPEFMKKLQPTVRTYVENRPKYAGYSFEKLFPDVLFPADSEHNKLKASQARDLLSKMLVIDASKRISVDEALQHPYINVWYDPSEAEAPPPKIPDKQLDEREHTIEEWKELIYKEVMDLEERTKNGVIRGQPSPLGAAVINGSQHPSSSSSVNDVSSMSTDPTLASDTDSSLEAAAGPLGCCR
- TEST: Cellular assay of JNK degradation (A549 cells, Western blot), JNK1
- Assay type: cell-based
- TEST CONDITIONS: read-out: JNK1 DC50 range
REPORTED ENDPOINT: DC50

{"columns": ["COMPOUND", "DC50"],
 "data": [
  ["CN[C@@H](C)C(=O)N[C@H](C(=O)N1CCC[C@H]1c1nc(-c2ccc(OCCOCCO[C@H]3CC[C@H](Nc4nccc(-c5cnn(Cc6ccccc6)c5N(C)C)n4)CC3)c3ccccc23)cs1)C1CCCCC1", "1 to 100 nM"],
  ["CN[C@@H](C)C(=O)N[C@H](C(=O)N1CC[C@@H]2CCN(CCc3ccc(OCCOCCOC4CCC(Nc5nccc(-c6cnn(Cc7ccccc7)c6N(C)C)n5)CC4)cc3)C[C@@H]21)C1CCCCC1 (mixture of isomers)", "100 to 1000 nM"],
  ["CN[C@@H](C)C(=O)N[C@H](C(=O)N1CCC[C@H]1c1nc(-c2ccc(OCCOCCOCCOC3CCC(Nc4nccc(-c5cnn(Cc6ccccc6)c5N(C)C)n4)CC3)c3ccccc23)cs1)C1CCCCC1 (stereo partly shown)", "1 to 100 nM"],
  ["CN[C@@H](C)C(=O)N[C@H](C(=O)N1CC[C@@H]2CCN(CCc3ccc(OCCOCCOCCOC4CCC(Nc5nccc(-c6cnn(Cc7ccccc7)c6N(C)C)n5)CC4)cc3)C[C@@H]21)C1CCCCC1 (mixture of isomers)", "1 to 100 nM"]
]}

# value lookup — system JNK1 (Homo sapiens, UniProt P45983), readout DC50, item `CN[C@@H](C)C(=O)N[C@H](C(=O)N1CCC[C@H]1c1nc(-c2ccc(OCCOCCOCCOCCOCCO[C@H]3CC[C@H](Nc4nccc(-c5cnn(Cc6ccccc6)c5N(C)C)n4)CC3)c3ccccc23)cs1)C1CCCCC1`
1 to 100 nM

Provide the documented DC50 with JNK1 (Homo sapiens, UniProt P45983) as the system for CN[C@@H](C)C(=O)N[C@H](C(=O)N1CCC[C@H]1c1nc(-c2ccc(OCCOCCOCCOCCOC3CCC(Nc4nccc(-c5cnn(Cc6ccccc6)c5N(C)C)n4)CC3)c3ccccc23)cs1)C1CCCCC1 (stereo partly shown)
100 to 1000 nM

Please provide the recorded DC50 for CN[C@@H](C)C(=O)N[C@H](C(=O)N1CC[C@@H]2CCN(CCc3ccc(OCCOCCOCCOCCOC4CCC(Nc5nccc(-c6cnn(Cc7ccccc7)c6N(C)C)n5)CC4)cc3)C[C@@H]21)C1CCCCC1 (mixture of isomers) , tested on JNK1 (Homo sapiens, UniProt P45983).
1 to 100 nM

====

- SYSTEM TESTED: Androgen receptor (AR) (Homo sapiens, UniProt P10275)
- Construct: endogenous in cells; host or cells: VCaP
- Sequence (P10275 whole entry): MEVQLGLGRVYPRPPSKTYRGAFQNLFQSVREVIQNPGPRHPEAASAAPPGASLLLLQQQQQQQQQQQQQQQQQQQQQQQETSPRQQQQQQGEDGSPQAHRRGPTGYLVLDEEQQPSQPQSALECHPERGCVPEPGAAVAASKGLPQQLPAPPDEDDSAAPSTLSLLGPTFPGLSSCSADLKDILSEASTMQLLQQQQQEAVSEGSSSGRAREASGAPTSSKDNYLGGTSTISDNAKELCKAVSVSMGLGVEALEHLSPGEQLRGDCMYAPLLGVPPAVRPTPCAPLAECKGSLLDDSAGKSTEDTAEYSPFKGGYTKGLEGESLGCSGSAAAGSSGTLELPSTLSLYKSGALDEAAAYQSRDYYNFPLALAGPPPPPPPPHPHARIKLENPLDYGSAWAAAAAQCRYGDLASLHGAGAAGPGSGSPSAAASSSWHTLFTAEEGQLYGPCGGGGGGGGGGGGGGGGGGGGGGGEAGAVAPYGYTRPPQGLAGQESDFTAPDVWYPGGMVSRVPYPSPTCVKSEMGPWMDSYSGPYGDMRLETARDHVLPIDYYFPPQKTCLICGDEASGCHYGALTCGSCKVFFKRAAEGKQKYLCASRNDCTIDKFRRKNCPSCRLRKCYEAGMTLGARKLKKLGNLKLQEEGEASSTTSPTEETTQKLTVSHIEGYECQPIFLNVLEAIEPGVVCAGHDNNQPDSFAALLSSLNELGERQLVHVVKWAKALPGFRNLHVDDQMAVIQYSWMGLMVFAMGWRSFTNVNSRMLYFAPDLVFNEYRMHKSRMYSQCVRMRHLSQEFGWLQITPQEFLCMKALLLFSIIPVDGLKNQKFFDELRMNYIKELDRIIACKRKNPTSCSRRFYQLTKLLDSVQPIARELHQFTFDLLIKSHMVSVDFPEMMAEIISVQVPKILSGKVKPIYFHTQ
- TEST: Cellular assay of androgen receptor (AR) degradation (VCaP cells, ELISA)
- Format: cell-based
- TEST CONDITIONS: 4 h; androgen receptor, VCaP cells, PROTAC concentration 1 μM, relative to DMSO control; read-out: Target protein degradation range
Recorded Dmax at 1 µM by entry

Hi! What's the reported Dmax at 1 µM for CN[C@@H](C)C(=O)N[C@H](C(=O)N1CCC[C@H]1C(=O)N[C@H]1c2ccccc2C[C@H]1OCCOCCOc1ccc(N2C(=S)N(c3ccc(C#N)c(C(F)(F)F)c3)C(=O)C2(C)C)cc1)C(C)(C)C [Example 35] on Androgen receptor (AR) (Homo sapiens, UniProt P10275)?
0 to 30%

Please state recorded Dmax at 1 µM (tested on Androgen receptor (AR) (Homo sapiens, UniProt P10275)) of CN[C@@H](C)C(=O)N[C@H](C(=O)N1CCC[C@H]1C(=O)N[C@H]1c2ccccc2C[C@H]1OCCOCCOCCOc1ccc(N2C(=S)N(c3ccc(C#N)c(C(F)(F)F)c3)C(=O)C2(C)C)cc1)C(C)(C)C [Example 36]
0 to 30%

# query: Dmax at 1 µM | item CN[C@@H](C)C(=O)N[C@H](C(=O)N1CCC[C@H]1c1nc(-c2ccc(OCCOCCOCCNc3ccc(C(=O)N[C@H]4C(C)(C)[C@H](Oc5ccc(C#N)c(Cl)c5)C4(C)C)cc3)c3ccccc23)cs1)C1CCCCC1 [Example 30] | system: Androgen receptor (AR) (Homo sapiens, UniProt P10275)
0 to 30%

For Androgen receptor (AR) (Homo sapiens, UniProt P10275), provide Dmax at 1 µM of CN[C@@H](C)C(=O)N[C@H](C(=O)N1CC[C@@H]2CCN(CCc3ccc(OCCOCCOCCOCCNc4ccc(C(=O)N[C@H]5C(C)(C)[C@H](Oc6ccc(C#N)c(Cl)c6)C5(C)C)cc4)cc3)C[C@@H]21)C1CCCCC1 (racemic) [Example 33] please.
30 to 60%

Identify the measured Dmax at 1 µM of CN[C@@H](C)C(=O)N[C@H](C(=O)N1CCC[C@H]1c1nc(-c2ccc(OCCOCCNc3ccc(C(=O)NC4C(C)(C)C(Oc5ccc(C#N)c(Cl)c5)C4(C)C)cc3)c3ccccc23)cs1)C1CCCCC1 (stereo partly shown) [Example 29] for Androgen receptor (AR) (Homo sapiens, UniProt P10275).
0 to 30%

Requested read-out Dmax at 1 µM, target or system Androgen receptor (AR) (Homo sapiens, UniProt P10275), entry CN[C@@H](C)C(=O)N[C@H](C(=O)N1CCC[C@H]1C(=O)N[C@H]1c2ccccc2C[C@H]1OCCOCCOc1ccc(C(=O)N[C@H]2C(C)(C)[C@H](Oc3ccc(C#N)c(Cl)c3)C2(C)C)cc1)C(C)(C)C [Example 38]
0 to 30%

# get_value(readout= Dmax at 1 µM, system= Androgen receptor (AR) (Homo sapiens, UniProt P10275)) for CN[C@@H](C)C(=O)N[C@H](C(=O)N1CCC[C@H]1c1nc(-c2ccc(OCCOCCOCCOCCNc3ccc(C(=O)N[C@H]4C(C)(C)[C@H](Oc5ccc(C#N)c(Cl)c5)C4(C)C)cc3)c3ccccc23)cs1)C1CCCCC1 [Example 31]
0 to 30%
